Molecular target: Toll-like receptor 4 (Mus musculus) (UniProt Q9QUK6)
Sequence (whole entry): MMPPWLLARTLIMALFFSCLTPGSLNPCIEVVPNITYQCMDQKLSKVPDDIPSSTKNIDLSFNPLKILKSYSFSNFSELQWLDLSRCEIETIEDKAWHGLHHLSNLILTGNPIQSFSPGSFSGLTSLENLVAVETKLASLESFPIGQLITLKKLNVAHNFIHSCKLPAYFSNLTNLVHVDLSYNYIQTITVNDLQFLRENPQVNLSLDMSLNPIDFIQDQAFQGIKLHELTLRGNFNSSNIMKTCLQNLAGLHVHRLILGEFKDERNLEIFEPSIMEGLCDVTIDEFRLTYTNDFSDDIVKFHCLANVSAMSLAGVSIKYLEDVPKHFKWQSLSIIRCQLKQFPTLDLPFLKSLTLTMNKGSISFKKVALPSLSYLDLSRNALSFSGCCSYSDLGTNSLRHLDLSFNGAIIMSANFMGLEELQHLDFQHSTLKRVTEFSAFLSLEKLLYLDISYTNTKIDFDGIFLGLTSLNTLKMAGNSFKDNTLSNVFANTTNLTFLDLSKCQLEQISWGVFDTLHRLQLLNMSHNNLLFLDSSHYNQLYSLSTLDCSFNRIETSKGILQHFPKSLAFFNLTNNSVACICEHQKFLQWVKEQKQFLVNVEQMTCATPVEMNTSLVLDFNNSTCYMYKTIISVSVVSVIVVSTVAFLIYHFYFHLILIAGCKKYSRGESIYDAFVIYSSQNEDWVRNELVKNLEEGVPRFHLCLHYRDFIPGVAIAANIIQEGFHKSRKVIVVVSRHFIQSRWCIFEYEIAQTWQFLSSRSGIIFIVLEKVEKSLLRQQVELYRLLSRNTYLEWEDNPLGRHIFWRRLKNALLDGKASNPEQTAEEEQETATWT
Assay: Inhibition of TLR4 in BALB/c mouse BMDM assessed as downregulation of LPS-stimulated IL-12p40 level at 5 ug/ml preincubated for 18 hrs followed by LPS challenge measured after 24 hrs by ELISA relative to control
Calls of active or inactive are those of the source. How the calls were made is not given here.
// one of active, inactive, no free text

Reference set (6 entries):
O=S(=O)(CCN1CCCC1)NCc1ccc(F)cc1 :: inactive
O=S(=O)(CCN1CCSCC1)c1ccccc1 :: active
CN(C)CCS(=O)(=O)Nc1ccccc1 :: active
COc1ccc2c(CS(=O)(=O)NCCN(C)C)cc(=O)oc2c1 :: active
CC[C@H](C)NCCS(=O)(=O)Cc1cccc(F)c1 :: inactive
CN(C)CCS(=O)(=O)Cc1ccc(F)cc1 :: inactive

Field: next molecule
Prompt: What did this assay record as the result for CC[C@H](C)NCCS(=O)(=O)Cc1ccc(Br)cc1 ?
Response: inactive

###

target: TLR2/TLR6 (Mus musculus) (UniProt Q9QUN7+Q9EPW9); assay: Inhibition of TLR2/6 in BALB/c mouse BMDM assessed as downregulation of BLP-stimulated IL-6 level at 5 ug/ml preincubated for 18 hrs followed by BLP challenge measured after 24 hrs by ELISA relative to control; format: protein-complex assay
Active and inactive are the calls of the source. No rule for the calls is given here.
// one of t (active), f (inactive), no free text

CN(C)CCN(C)CCS(=O)(=O)Nc1ccc(F)cc1 :: f
CN(C)CCN(C)CCS(=O)(=O)NCc1ccc(Br)cc1 :: t
CN(C)CCNS(=O)(=O)Cc1ccccc1 :: f
O=C(Cc1ccccc1)NCCN1CCCC1 :: t
CN(C)CCN(C)CCS(=O)(=O)c1ccccc1 :: f

Prompt: What did this assay record as the result for O=S(=O)(Cc1ccc(Br)cc1)NCCN1CCOCC1 ?
Response: f

Prompt: What did this assay record as the result for O=S(=O)(CCCN1CCOCC1)Cc1ccc(Br)cc1 ?
Response: t

Source listed as ChEMBL document CHEMBL3108700.
